- systemUnderTest: Mu-type opioid receptor (Homo sapiens) + Delta-type opioid receptor (Homo sapiens) (UniProt P35372+P41143)
- Sequence (P35372 whole entry, looked up): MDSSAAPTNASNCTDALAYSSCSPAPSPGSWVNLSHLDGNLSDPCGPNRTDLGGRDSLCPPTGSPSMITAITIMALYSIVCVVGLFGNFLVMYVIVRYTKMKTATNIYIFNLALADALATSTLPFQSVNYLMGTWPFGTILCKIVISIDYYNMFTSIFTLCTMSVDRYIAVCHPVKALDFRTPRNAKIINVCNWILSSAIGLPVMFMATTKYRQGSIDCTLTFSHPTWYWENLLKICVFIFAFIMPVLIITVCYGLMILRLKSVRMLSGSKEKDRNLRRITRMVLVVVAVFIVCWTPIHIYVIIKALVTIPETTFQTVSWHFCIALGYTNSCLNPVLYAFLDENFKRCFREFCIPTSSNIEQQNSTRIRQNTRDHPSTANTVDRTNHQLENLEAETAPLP
- Sequence (P41143 whole entry, looked up): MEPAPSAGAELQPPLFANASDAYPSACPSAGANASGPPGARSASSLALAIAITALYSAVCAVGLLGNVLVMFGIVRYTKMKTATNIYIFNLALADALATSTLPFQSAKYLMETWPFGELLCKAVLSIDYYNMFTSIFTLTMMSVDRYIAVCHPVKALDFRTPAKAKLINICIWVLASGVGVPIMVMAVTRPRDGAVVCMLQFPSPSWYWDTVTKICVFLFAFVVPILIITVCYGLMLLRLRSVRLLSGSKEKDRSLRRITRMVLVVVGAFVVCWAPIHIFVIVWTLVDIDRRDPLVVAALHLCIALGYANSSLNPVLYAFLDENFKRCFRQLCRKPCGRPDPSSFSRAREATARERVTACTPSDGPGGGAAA
- testSummary: agonists of OPRM1-OPRD1 heterodimerization, primary screen, cell-based, luminescence (AID 504326);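 further: 0% = vehicle-treated cells and 100% = reference agonist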
- conditionParameters: cells, at 9.3 µM
The whole screen tested about 340,000 compounds, of which about 990 (0.29%) were called active. No stated cut-off is given here; in the data, active means activation above about 18%; inactive means the rest. This is one part of a sample in which actives are shown more often than they occur.
# valid calls are active, inactive; nothing else

Solved cases below.
structureSmilesString	categoryLabel
CCNS(=O)(=O)c1ccc(NC(=O)Nc2cccc(OC)c2)cc1	active
CC(=O)N1CCN(C(=O)C2(NC(=O)Nc3ccc(C)cc3)CCCCC2)CC1	inactive
CNC(=O)c1[nH]cnc1C(=O)N[C@@H](CC(C)C)C(=O)OC(C)(C)C	inactive
CCc1ccc(NC(=O)COC(=O)c2cccs2)cc1	inactive

Record lookup: outcome of this test for "O=C(NC1=CC(=O)c2ccccc2C1=O)c1ccccc1" ?
active

Same again, this time with "FC(F)(F)c1ccc2nnc(-c3c(Cl)cccc3Cl)n2c1"
inactive

====

Hi there, I'd appreciate the recorded activation for every entry that follows.
- systemUnderTest: Mu-type opioid receptor (Homo sapiens) + Delta-type opioid receptor (Homo sapiens) (UniProt P35372+P41143)
- testSummary: agonists of OPRM1-OPRD1 heterodimerization, primary screen, cell-based, luminescence (AID 504326);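 further: 0% = vehicle-treated cells and 100% = reference agonist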
- conditionParameters: cells, at 9.3 µM, stronger effect = higher value
The whole screen tested about 340,000 compounds, of which about 990 (0.29%) were called active. The list comes from a sample in which actives are over-represented; it also holds close analogues and randomly drawn compounds.
Give bare numbers, in %.

molecule	activation [%]
CCOC(=O)C1=C(C)c2ccccc2OC1(C)C(=O)OCC (stereo unspecified)	-0.33
CCOc1ccc(Br)cc1S(=O)(=O)Nc1ccc(C(=O)OC(C)C(=O)N(C)c2ccccc2)cc1 (stereo unspecified)	2.35
O=C(NCc1ccc(Cl)c(Cl)c1)c1cccnc1	0.81
CN(CC(=O)NCc1cccnc1)S(=O)(=O)c1cc(Cl)ccc1Cl	-3.02
Cc1cc(C)c2c(=O)[nH]c(SCC(=O)Nc3ccc(Br)cc3)nc2n1	2.08
COCCN(CCOC)S(=O)(=O)c1ccc(/C(O)=C(\C#N)c2nc3ccccc3[nH]2)cc1	-0.63
CCOc1cc(S(=O)(=O)NC2CC(C)(C)NC(C)(C)C2)ccc1F	-2.58
Cc1cccc(N2CCN(C(=O)c3ccccc3NC(=O)C3CCCCC3C(=O)O)CC2)c1 (stereo unspecified)	-1.68
N#C/C(=C(/O)Cc1cccc2ccccc12)c1nc2ccccc2s1	-0.06
COc1ccc2c(CC(=O)NNC(=O)c3ccccc3F)coc2c1	-0.31

Hey, quick one: what's activation for each of these?
1. CSc1sc(C)cc1C1C(C#N)=C(N)N(c2cccnc2)C2=C1C(=O)CCC2 (stereo unspecified)
2. CCOC(=O)c1ccccc1OC(=O)Oc1ccccc1C(=O)OCC
3. C#CC(CCN1CCCCC1)(OC)c1ccccc1 (stereo unspecified)

[-1.23, -2.83, -1.1]

Hey, quick one: what's activation for each of these?
1. CCOC(=O)c1c(C)[nH]c2c1-c1ccccc1C(=O)C2=O
2. CC1=NNC(=O)C1CCC(=O)N/N=C\c1ccc(Cl)c(Cl)c1 (stereo unspecified)
3. CN(C(=O)c1ccc(NC(=O)Cc2cccc(NC(=O)C3CCN(C(=O)c4ccccc4)CC3)c2)cc1)C1CC1

[22.6, -0.87, -0.88]

====

- systemUnderTest: Mu-type opioid receptor (Homo sapiens) + Delta-type opioid receptor (Homo sapiens) (UniProt P35372+P41143)
- testSummary: agonists of OPRM1-OPRD1 heterodimerization, primary screen, cell-based, luminescence (AID 504326);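 further: 0% = vehicle-treated cells and 100% = reference agonist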
- conditionParameters: cells, at 9.3 µM, stronger effect = higher value
Out of some 340,000 compounds screened, about 990 (0.29%) were called active. Many of the other results were omitted from the sample, so actives are more common in it than they were.
Hi there, I'd appreciate the recorded activation for every entry that follows.
Give bare numbers, in %.

compound	activation [%]
CC(=O)CSc1nc(CCc2ccccc2)c(C#N)c(=O)[nH]1	-2.33

Hey, quick one: what's activation for each of these?
1. COc1ccc(NC(=O)CN2C(=O)COc3ccc(S(=O)(=O)N4CCOCC4)cc32)c(OC)c1
2. Cc1ccc(C(=O)NCC(c2cccs2)N(C)C)cc1S(=O)(=O)N1CCOCC1 (configuration not stated)
3. COc1cccc(/C=N/Nc2cc(C)nc(-c3ccccc3O)n2)c1O
4. COC(=O)C1=C(C)N(C)C(=S)NC1c1cc(OC)ccc1OC (configuration not stated)
5. O=C(NCCc1ccccc1)c1c[nH]c2ccc(F)cc2c1=O
6. CCn1c(SCC(=O)Nc2ccc(C)cc2)nc2nc3c(cc2c1=O)CCCC3
7. O=C(/C=C/c1cnc2ccccc2n1)NC1CCCCCC1

-1.21
7.26
35.6
1.16
-1.1
-0.65
-1.86

Hey, quick one: what's activation for each of these?
1. O=C(NCc1ccccn1)Nc1ccc(Cl)cc1
2. Cc1ccn(C(CC(=O)c2ccc(Br)cc2)C(=O)O)n1 (configuration not stated)

1. -2.12
2. -1.91

Hey, quick one: what's activation for each of these?
1. CCOc1ccc(NC(=O)CCS(=O)(=O)c2cccc3nsnc23)cc1
2. COC(=O)CCCC1=CC2=C(c3ccccc3)C(=O)C(C)(OC(=O)C3CCCC3)C(=O)C2=CN1c1ccc(OC)cc1 (configuration not stated)
3. Cc1ccc(NC(=O)c2oc(=O)c3ccccc3c2-c2ccccc2)c(C)c1
4. Cc1ccc(F)cc1S(=O)(=O)Nc1cccc(C(=O)N2CCCC(C(N)=O)C2)c1 (configuration not stated)
5. CCC(C)(C)C1CCC(=NNC(=O)c2ccc(Br)o2)CC1 (configuration not stated)
6. COc1ccccc1CNC(=O)c1ccc(Cl)c(S(=O)(=O)N2CCCC2)c1
7. CCc1ccc(N(CC(=O)NCc2cccnc2)S(=O)(=O)c2ccccc2)cc1

[-1.59, -1.53, -0.43, 3.39, -0.98, -1.63, -1.13]

====

- systemUnderTest: Mu-type opioid receptor (Homo sapiens) + Delta-type opioid receptor (Homo sapiens) (UniProt P35372+P41143)
- testSummary: agonists of OPRM1-OPRD1 heterodimerization, primary screen, cell-based, luminescence (AID 504326);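 further: 0% = vehicle-treated cells and 100% = reference agonist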
- conditionParameters: cells, at 9.3 µM, stronger effect = higher value
Screen size: about 340,000 compounds; about 990 (0.29%) were called active. For the sample, actives were picked, then their nearest neighbours and some compounds at random.
Hi there, I'd appreciate the recorded activation for every entry that follows.
One number for each entry, in %.

As a guide, the following entries are already answered.
molecule	activation, %
O=C(CNC(=O)c1ccccc1F)c1ccc(Br)cc1	-3.5
Cc1ccc(N2C(=O)N3[C@@H]4c5ccccc5OC[C@@H]4[C@@H](c4ccccc4)[C@@]3(C)C2=O)cc1	-1.07
CCNC(=O)CN(c1ccc(C)cc1)S(=O)(=O)c1ccc(SC)cc1	-4.37
C/C=C/C=C/C(=O)O	-2.37
CCCC1(C(=O)OC)NC(c2ccco2)C2C(=O)N(C)C(=O)C21 (stereo not given)	-1.73

Hey, quick one: what's activation for each of these?
1. COc1ccc(C2Nc3ccccc3C(=O)N2c2ccc(F)cc2)cc1Cn1nnc2ccccc21 (stereo not given)
2. Cc1ccc(S(=O)(=O)NC(C)C(=O)Nc2ccccc2C(=O)N2CCCC2)cc1 (stereo not given)

1: 29.4; 2: 2.72

====

- systemUnderTest: Mu-type opioid receptor (Homo sapiens) + Delta-type opioid receptor (Homo sapiens) (UniProt P35372+P41143)
- testSummary: agonists of OPRM1-OPRD1 heterodimerization, primary screen, cell-based, luminescence (AID 504326);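 further: 0% = vehicle-treated cells and 100% = reference agonist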
- conditionParameters: cells, at 9.3 µM, stronger effect = higher value
The campaign covered roughly 340,000 compounds. About 990 (0.29%) were called active. The entries come from a sample that favours actives as a whole.
readout: activation

As a guide, the following entries are already answered.
molecule	activation
COc1ccc(N2C(=O)c3ccccc3NC2c2ccc(OC)c(CN3CCOCC3)c2)cc1 (stereo not drawn)	-3.57% (inactive)
CC(C)(C)C(=O)NC(NC(=S)Nc1ccc(S(N)(=O)=O)cc1)C(Cl)(Cl)Cl (stereo not drawn)	0.71% (inactive)
Cc1ccc(S(=O)(=O)N(CC(=O)Nc2cccnc2)c2ccc(Br)cc2)cc1	24.9% (active)
COCCCNC(=O)Cn1cc(/C=C(\C#N)C(=O)N2CCN(c3ccccc3)CC2)c2ccccc21	-0.49% (inactive)
CCOc1ccc(C(=O)Nc2ccc(S(=O)(=O)NCC3CCCO3)cc2)cc1OCC (stereo not drawn)	-4.05% (inactive)
Cc1ccc(NC(=S)NC(NC(=O)Cc2cccc3ccccc23)C(Cl)(Cl)Cl)cc1 (stereo not drawn)	43.3% (active)

Hey, quick one: what's activation for each of these?
1. COc1ccc(C(CNC(=O)c2ccc(S(=O)(=O)Nc3ccccc3F)cc2)N(C)C)cc1 (stereo not drawn)
2. Cc1cccc(OCC(=O)Nc2ccccc2F)c1

1: -3.41% (inactive); 2: -3.72% (inactive)
